The values you see were collected from patent US20260184782A1.

- assay.target: T1, TIGIT (UniProt Q495A1 22-141, limits assumed)
- T1 construct: also called T cell immunoreceptor with Ig and ITIM domains; hTIGIT
- T1 sequence (looked up): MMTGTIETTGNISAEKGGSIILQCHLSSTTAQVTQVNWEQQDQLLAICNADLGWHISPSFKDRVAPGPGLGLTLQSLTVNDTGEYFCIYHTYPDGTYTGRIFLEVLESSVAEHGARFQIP
- test.protocol: SPR (Carterra)
readout.kind: Kd (µM)

* TIGIT-211-57 (antibody, V domains shown) VH: EVQLLESGGGLVQPGGSLRLSCAASGLTFPNYGMGWVRQAPGKGLEWVSAISREGRATYYADSVKGRFTISRDNSKNTLYLQMNSLRAEDTAVYYCARVIAAAGAFDYWGQGTLVTVSS VL: DIQMTQSPSSLSASVGDRVTITCRSSQSLVHSTGNTYLHWYQQKPGKAPKLLIYGKNIRPSGVPSRFSGSGSGTDFTLTISSLQPEDFATYYCQQSYTTPWTFGQGTKVEIK | 3.4
* TIGIT-211-40 (antibody, V domains shown) VH: EVQLLESGGGLVQPGGSLRLSCAASGFTFSRYAMNWVRQAPGKGLEWVSEISPSGKKKYYADSVKGRFTISRDNSKNTLYLQMNSLRAEDTAVYYCAKSSFDKYNFDYWGQGTLVTVSS VL: DIQMTQSPSSLSASVGDRVTITCRASQDIGNFLNWYQQKPGKAPKLLIYRTSWLQSGVPSRFSGSGSGTDFTLTISSLQPEDFATYYCQQRSSYPPTFGQGTKVEIK | 0.392
